experimental system: ALOX5 (Homo sapiens, UniProt P09917)
Sequence (P09917 whole entry): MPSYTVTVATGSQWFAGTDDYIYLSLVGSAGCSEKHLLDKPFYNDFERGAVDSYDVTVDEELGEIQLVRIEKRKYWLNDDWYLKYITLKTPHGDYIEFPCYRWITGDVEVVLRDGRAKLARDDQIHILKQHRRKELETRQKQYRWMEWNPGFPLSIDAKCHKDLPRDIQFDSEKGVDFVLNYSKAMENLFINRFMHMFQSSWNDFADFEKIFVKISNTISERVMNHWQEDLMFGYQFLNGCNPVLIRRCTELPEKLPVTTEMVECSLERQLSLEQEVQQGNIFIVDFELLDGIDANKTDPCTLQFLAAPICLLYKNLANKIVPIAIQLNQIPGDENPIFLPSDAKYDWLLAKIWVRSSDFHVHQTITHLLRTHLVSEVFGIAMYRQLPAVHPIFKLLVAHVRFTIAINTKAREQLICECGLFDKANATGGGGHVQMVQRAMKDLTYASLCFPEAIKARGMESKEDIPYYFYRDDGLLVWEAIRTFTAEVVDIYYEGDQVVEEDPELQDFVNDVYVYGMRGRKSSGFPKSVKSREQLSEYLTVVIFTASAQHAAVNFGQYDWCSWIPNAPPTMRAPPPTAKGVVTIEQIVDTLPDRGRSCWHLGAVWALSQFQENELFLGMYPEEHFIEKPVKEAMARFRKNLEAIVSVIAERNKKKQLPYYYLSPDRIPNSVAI
pKd: −log10 of the molar value.

| compound | pKd |
| --- | --- |
| COc1cc2c(c(OC)c1OC)-c1c(cc(OC)c(OC)c1OC)C[C@H](C)[C@H](C)C2 [Schizandrin A] | 4.66 |
